Readings of Dmax for the listed compounds
tgt: Androgen Receptor (Homo sapiens)
Construct: endogenous in cells; host or cells: VCaP cells
Sequence (P10275 whole entry): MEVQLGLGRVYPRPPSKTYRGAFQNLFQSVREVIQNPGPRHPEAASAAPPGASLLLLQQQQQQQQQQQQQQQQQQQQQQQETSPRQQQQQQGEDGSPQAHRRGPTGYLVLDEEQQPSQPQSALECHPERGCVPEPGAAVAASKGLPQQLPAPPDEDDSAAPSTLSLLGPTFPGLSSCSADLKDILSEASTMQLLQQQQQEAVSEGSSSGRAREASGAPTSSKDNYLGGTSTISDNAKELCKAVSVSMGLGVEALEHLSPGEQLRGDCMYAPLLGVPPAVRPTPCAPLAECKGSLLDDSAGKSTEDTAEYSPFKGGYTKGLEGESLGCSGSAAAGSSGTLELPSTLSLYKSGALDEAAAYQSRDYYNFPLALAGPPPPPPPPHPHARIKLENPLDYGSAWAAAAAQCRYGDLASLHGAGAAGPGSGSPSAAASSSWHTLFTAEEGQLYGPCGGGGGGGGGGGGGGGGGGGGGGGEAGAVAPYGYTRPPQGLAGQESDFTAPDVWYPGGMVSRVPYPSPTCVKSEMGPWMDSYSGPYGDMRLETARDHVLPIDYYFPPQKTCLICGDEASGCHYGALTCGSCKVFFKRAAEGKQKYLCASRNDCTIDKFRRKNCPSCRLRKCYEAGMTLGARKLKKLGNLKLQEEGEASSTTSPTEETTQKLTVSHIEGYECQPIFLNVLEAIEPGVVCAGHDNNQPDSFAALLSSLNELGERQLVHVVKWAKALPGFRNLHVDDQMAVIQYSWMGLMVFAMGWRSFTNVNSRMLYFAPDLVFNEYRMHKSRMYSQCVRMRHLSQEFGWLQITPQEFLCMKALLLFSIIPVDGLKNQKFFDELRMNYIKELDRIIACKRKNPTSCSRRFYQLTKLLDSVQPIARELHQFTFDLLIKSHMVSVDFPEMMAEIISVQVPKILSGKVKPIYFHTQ
procedureText: Androgen Receptor ELISA assay (PathScan AR ELISA) in VCaP cells: AR degradation, Dmax and DC50
Type: cell-based
conditionsUsed: VCaP, VCaP cells; Table 36; read-out: VCaP Dmax (%)
valueType: Dmax

>>> observedvalue("Cc1ncsc1-c1ccc([C@H](C)NC(=O)[C@@H]2C[C@@H](O)CN2C(=O)[C@@H](NC(=O)CO[C@H](C)CN2CCN(c3ccc(C(=O)N[C@H]4C(C)(C)[C@H](Oc5ccc(C#N)c(Cl)c5)C4(C)C)cc3)CC2)C(C)(C)C)cc1 [Example 634]")
"> 71%"
>>> observedvalue("Cc1ncsc1-c1ccc([C@H](C)NC(=O)[C@@H]2C[C@@H](O)CN2C(=O)[C@H](C(C)C)n2cc(-c3ccnc(OC4CN(c5ccc(C(=O)N[C@H]6C(C)(C)[C@H](Oc7ccc(C#N)c(Cl)c7)C6(C)C)cn5)C4)c3)cn2)cc1 [Example 594]")
"< 25%"
>>> observedvalue("Cc1ncsc1-c1ccc(CNC(=O)[C@@H]2C[C@@H](O)CN2C(=O)[C@@H](NC(=O)CN2CCC3(CC2)CCN(c2ccc(C(=O)N[C@H]4C(C)(C)[C@H](Oc5ccc(C#N)c(Cl)c5)C4(C)C)cn2)CC3)C(C)(C)C)cc1 [Example 672]")
"51 to 70%"
>>> observedvalue("Cc1ncsc1-c1ccc([C@H](C)NC(=O)[C@@H]2C[C@@H](O)CN2C(=O)[C@@H](NC(=O)COC2CC(N3CCN(c4ccc(C(=O)NC5C(C)(C)C(Oc6ccc(C#N)c(Cl)c6)C5(C)C)cn4)CC3)C2)C(C)(C)C)cc1 (stereo partly shown) [Example 846]")
"> 71%"

Where do the numbers come from? From patent US11427548B2.
